biological target: HaxyOBP5 (Harmonia axyridis, UniProt A0A8J9RUK3); test: Competitive fluorescence binding assay (bis-ANS probe); settings: recombinant protein and bis-ANS at 2 μM, Tris-HCl 50 mM pH 7.4; Ki = [IC50]/(1 + [bis-ANS]/Kbis-ANS); read-out: HaxyOBP5 Ki
Sequence (A0A8J9RUK3 entry or part of it): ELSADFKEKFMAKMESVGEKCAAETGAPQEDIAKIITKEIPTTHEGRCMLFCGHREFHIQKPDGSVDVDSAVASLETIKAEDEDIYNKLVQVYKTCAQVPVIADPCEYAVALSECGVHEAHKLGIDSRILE
reported-property: Ki (µM)
Give bare numbers, in µM.

The recorded Ki for COC(=O)c1ccccc1O [Methyl salicylate] is 18.1

====

target: UniProtKB A0A8J9RUK3; assay: Competitive fluorescence binding assay (bis-ANS probe)
Answer each item with its documented pIC50.
Give bare numbers, as −log10 of the molar value.

chemical_smiles=CC(=O)/C=C/C1=C(C)CCCC1(C)C reading=4.75

Please look at the following compound next.
The recorded pIC50 for COc1ccc(C=O)cc1 is 4.70

====

biological target: HaxyOBP15 (Harmonia axyridis); assay: Competitive fluorescence binding assay (1-NPN probe); conditions: recombinant protein and 1-NPN at 2 μM, Tris-HCl 50 mM pH 7.4; read-out: HaxyOBP15 IC50
reported-property: IC50

Use these answered entries as a reference point.
compound="C=CC(=C)CC/C=C(\\C)CCC=C(C)C [(E)-β-Farnesene]" target_system="HaxyOBP15 (Harmonia axyridis)" reported_property=IC50 reading="5.81 µM"
compound="CC(=O)CCC1=C(C)CCCC1(C)C [Dihydro-β-ionone]" target_system="HaxyOBP15 (Harmonia axyridis)" reported_property=IC50 reading="30.9 µM"
compound=CCCCCCCCC=O target_system="HaxyOBP15 (Harmonia axyridis)" reported_property=IC50 reading="38.5 µM"

The recorded IC50 for CC(=O)OC/C=C(\C)CCC=C(C)C [Geranyl acetate] is 30.3 µM

====

molecular target: HaxyOBP15 (Harmonia axyridis, UniProt A0A8K1AM29); assay: Competitive fluorescence binding assay (1-NPN probe); conditions: recombinant protein and 1-NPN at 2 μM, Tris-HCl 50 mM pH 7.4; Ki = [IC50]/(1 + [1-NPN]/K1-NPN)
Sequence (A0A8K1AM29 entry or part of it): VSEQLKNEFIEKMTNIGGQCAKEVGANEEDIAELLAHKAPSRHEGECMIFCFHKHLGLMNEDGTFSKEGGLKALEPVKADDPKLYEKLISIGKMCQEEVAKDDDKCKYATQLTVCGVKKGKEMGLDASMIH
reported-property: Ki (µM)
Answers are plain numbers, in µM.

Parameters: items (list). Returns: Ki for each item.
1. CCCCCCCCC=O
2. CC(=O)OC/C=C(\C)CCC=C(C)C [Geranyl acetate]

a:
29.6
23.4

Parameters: items (list). Returns: Ki for each item.
1. CC(=O)CCC1=C(C)CCCC1(C)C [Dihydro-β-ionone]
2. C=CC(=C)CC/C=C(\C)CCC=C(C)C [(E)-β-Farnesene]

a:
24
4.33

====

target: HaxyOBP15 (Harmonia axyridis, UniProt A0A8K1AM29)
reported-property: Kd (µM)
Answers are plain numbers, in µM.

The recorded Kd for c1ccc(Nc2cccc3ccccc23)cc1 is 5.07

====

Answer each item with its documented IC50.
molecular target: HaxyOBP3 (Harmonia axyridis); assay: Competitive fluorescence binding assay (bis-ANS probe); conditions: recombinant protein and bis-ANS at 2 μM, Tris-HCl 50 mM pH 7.4
One number for each entry, in µM.

compound="CC(=O)/C=C/C1=C(C)CCCC1(C)C [β-Ionone]" reported_property=IC50 measurement_unit=µM reading=25.9

Please look at the following compound next.
The recorded IC50 for COc1ccc(C=O)cc1 [p-Anisaldehyde] is 34.1

====

Answer each item with its documented pKi.
biological target: HaxyOBP3 (Harmonia axyridis, UniProt A0A8K1AM44); test: Competitive fluorescence binding assay (bis-ANS probe); conditions: recombinant protein and bis-ANS at 2 μM, Tris-HCl 50 mM pH 7.4; Ki = [IC50]/(1 + [bis-ANS]/Kbis-ANS)
Sequence (A0A8K1AM44 entry or part of it): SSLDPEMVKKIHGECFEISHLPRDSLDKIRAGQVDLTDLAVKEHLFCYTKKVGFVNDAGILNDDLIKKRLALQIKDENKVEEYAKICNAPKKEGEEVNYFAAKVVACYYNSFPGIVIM
One number for each entry, as −log10 of the molar value.

compound="CC(=O)/C=C/C1=C(C)CCCC1(C)C [β-Ionone]" reported_property=pKi reading=4.73

So the reported pKi for COc1ccc(C=O)cc1 [p-Anisaldehyde] , on HaxyOBP3 (Harmonia axyridis, UniProt A0A8K1AM44), turned out to be 4.61
